# assayOverview: Mouse 6-hour PK study
# runConditions: mouse, in vivo
parameter: AUC(0-t)

molecule: CC(C)c1cccc(=O)c(O)c1F [Ex. 2]
parameter: AUC(0-t)
result: 5000 to 20000 ng·h/mL

molecule: O=c1ccccc([C@H]2CCCO2)c1O (single isomer, unassigned) [Ex. 41]
parameter: AUC(0-t)
result: 500 to 1500 ng·h/mL

molecule: O=c1ccccc(OC2CC3(CC3)C2)c1O [Ex. 82]
parameter: AUC(0-t)
result: 500 to 1500 ng·h/mL

molecule: O=c1ccc(OC2COC2)ccc1O [Ex. 12]
parameter: AUC(0-t)
result: < 499 ng·h/mL

molecule: Cc1cccc(C(C)C)c(O)c1=O [Ex. 30]
parameter: AUC(0-t)
result: < 499 ng·h/mL

Give AUC(0-t) for all molecules that follow.
1. O=c1c(F)cccc(C2CCOCC2)c1O [Ex. 36]
2. CCc1cccc(C)c(=O)c1O [Ex. 27]
3. O=c1ccccc(OC2CCC2)c1O [Ex. 56]
4. O=c1ccccc([C@@H]2CCCO2)c1O (single isomer, unassigned) [Ex. 42]
5. Cc1cc(C(C)C)ccc(O)c1=O [Ex. 28]

Ans:
1: > 20000 ng·h/mL; 2: 500 to 1500 ng·h/mL; 3: 1500 to 5000 ng·h/mL; 4: 500 to 1500 ng·h/mL; 5: < 499 ng·h/mL
